- Test summary: Single oral pharmacokinetics of the free form in suspension in male rats
- Type: in vivo, male Sprague Dawley rats
- Condition parameters: Sprague Dawley, rat, plasma, po; male rats; free form; 150 mg/kg
Value type: Tmax (h)
API: value field is a number in h; no unit string.

Field Tmax (entry Cc1ccc(NC(=O)C2(c3ccc4c(c3)OC(F)(F)O4)CC2)nc1-c1cccc(C(=O)O)c1 [Compound 1] ) reads 4.67

Values were extracted from patent US20090176839A1.
